Value source: PubChem BioAssay (NCI)

Overview of recorded growth for various compounds
Tested on: NCI-H23 lung
Experiment: NCI-60 one-dose screen, 48 h (100 = growth as untreated, 0 = no growth, -100 = all killed)
Details: 10 µM unless noted
This is part of a sample that, as a whole, favours compounds with a hit. Of some 83,000 tested, about 20% had one in any assay.
endpoint: growth (%)

                                   compound  assay_target  endpoint  obs_value
0  CCOC(=O)Cn1c(-c2nonc2NC(=O)c2ccccc2F)nc2ccccc21  NCI-H23 lung    growth       76.2
1  Cc1ccccc1NC(=O)c1sc2nc3c(cc2c1N)C(=O)CCC3  NCI-H23 lung    growth       50.6
2           O=C(Nc1ccc(Br)cc1)Nc1cccc(Br)c1  NCI-H23 lung    growth       18.4
3              O=C(N/N=C/c1ccccc1O)c1ccncc1  NCI-H23 lung    growth       70.9
4          CC(=O)c1ccc(Br)c([N+](=O)[O-])c1  NCI-H23 lung    growth        106
5    Nc1nc(N)c2cc(NCc3ccc(Cl)c(Cl)c3)ccc2n1  NCI-H23 lung    growth        -88
6  CC1(C)OC2OC3C(CN)OC(c4ccccc4)OC3C2O1 (stereo not given)  NCI-H23 lung    growth       99.5
7   CCCCCCCC/C=C/CCCCCCCC1=NC(C)(C)CN1C(C)C  NCI-H23 lung    growth      -2.44
8  O=c1oc2ccccc2cc1-c1cc(-c2ccc(-c3cc(-c4cc5ccccc5oc4=O)nc(-c4cc5ccccc5oc4=O)c3)cc2)cc(-c2cc3ccccc3oc2=O)n1  NCI-H23 lung    growth       98.5
9  NS(=O)(=O)c1ccc(CCn2c(SCC(=O)N/N=C/c3cccnc3)nc3ccccc3c2=O)cc1  NCI-H23 lung    growth       93.3

* * *

The reader will find reported growth values listed item by item below.
Tested on: MALME-3M melanoma
Test: NCI-60 one-dose screen, 48 h (100 = growth as untreated, 0 = no growth, -100 = all killed)
Details: 10 µM unless noted
Compounds without any hit were thinned out: in the full panel of roughly 83,000, 20% have a hit.
endpoint: growth (%)

In [3]: df
Out[3]:
                                   compound  endpoint  obs_value
0  COc1ccc(-c2cnc(-c3ccncc3-c3cccc(OC)c3)o2)cc1    growth         92
1  CC(C)OC1OC(OC(C)C)C(OC(C)C)OC1OC(C)C (stereo not given)    growth        119
2              NC(=O)c1ccc[n+](Cc2ccccc2)c1    growth       75.4
3  CNC(=O)c1c(NC(=O)c2ccc(C(C)C)cc2)sc2c1CCC(=O)C2    growth      -45.3
4  COc1cc(C2CC(c3ccc(Cl)cc3)=NN2C(C)=O)ccc1Oc1nc2c(c(=O)n(C)c(=O)n2C)n1C (stereo not given)    growth        100
5    ClC1(Cl)C2CCCCCCC21 (stereo not given)    growth        107
6  C#CCO[C@H]1CC[C@H](OCC#C)[C@@H]2[C@H]1[C@H]1C[C@@H]3[C@@]4(C)CCC[C@@](C)(C(=O)OC)[C@@H]4CC[C@@]23C=C1C(C)C    growth      -41.7
7           CCOC(=O)CCN(CCC(=O)OCC)c1ccccc1    growth        120
8               CCCCOC(=O)c1cc(O)c(O)c(O)c1    growth        122
9  O=C1/C=C/[C@@H](O)[C@@H]2C[C@@H](O)C[C@H]2/C=C/CCC[C@H]([C@@H](O)CO)O1    growth       64.4

* * *

Test system: CAKI-1 renal
Assay: NCI-60 one-dose screen, 48 h
Conditions: 10 µM unless noted
Description: Growth inhibition of the CAKI-1 human tumor cell line is measured as a screen for anti-cancer activity. Cells are grown in 96 well plates and exposed to the test compound for 48 hours. Compounds are tested at a single concentration, which is 10^-5 M for most compounds. The reported endpoint is percent growth (GI% or GIPRCNT), where numbers from 0 - 100% represent growth inhibition, and numbers from -100% - 0 represent cell death. For example, a value of 40 represents 60% growth inhibition. […]
This is part of a sample that, as a whole, favours compounds with a hit. Of some 83,000 tested, about 20% had one in any assay. The source made the active and inactive calls. The calls were made as follows: active = growth percent below 10; inactive = the rest.
Outcomes: True (active), False (inactive)

compound	class
Cc1cc(C#Cc2ccc(C(C)(C)C)cc2)ccc1-n1c(/C=C/c2c(Cl)cccc2Cl)nc2ccccc2c1=O	False
S=C(S)Oc1cccc2cccnc12	False
O=C(O)C(CCc1ccccc1)NCc1ccccc1 (stereo unspecified)	False
O=c1c2cc(Br)cc(Br)c2nc(-c2ccc(Cl)cc2)n1/N=C\c1ccccc1F	False
COc1ccc(NC(=O)c2sc3c(=O)[nH]c(C(F)(F)F)nc3c2C)cc1	False
CS(=O)(=O)c1ccc(C(=O)N2N=C(c3ccccc3)CC2c2ccc3c(c2)OCO3)cc1 (stereo unspecified)	False
CCCCCCCCCCCC1=NC(C)(C)CN1CCO	False
S=C(Nc1ccc(Cl)cc1)Nc1ccc(Cl)cc1 (tested in a mixture with another compound)	True
C(=Nc1ccc(-c2ccc(N=Cc3ccccc3)cc2)cc1)c1ccccc1	False
CCN(CC)Cc1cc(Nc2ccnc3ccc(OC)cc23)ccc1O	False
O=c1nc(-c2ccccc2)c2cc(-c3ccc(N4CCOCC4)cc3)ccc2[nH]1	False
CNC(=O)c1c(NC(=O)c2ccc(C(C)C)cc2)sc2c1CCC(=O)C2	True
COc1ccc(C(=O)OC2C(OC3C(O)COC(O[C@H]4C[C@H]5[C@@H]6CC=C7C[C@@H](O)CC[C@]7(C)[C@H]6CC[C@]5(C)[C@H]4[C@H](C)C(=O)CCC(C)C)C3OC(=O)C(C)C)OCC(O)C2O)cc1 (stereo partly specified)	True
COc1cc(CN2CCC(N3CCCC3=O)c3ccccc32)cc(OC)c1OC (stereo unspecified)	False
Cc1ccc(NC(=O)c2sc3nc4c(cc3c2N)C(=O)CCC4)cc1Cl	False
COc1ccc2c(c1)sc1nc(-c3ccccc3)c(-c3cccc4ccccc34)n12	False
CC(C)(C)c1nn(-c2ccccc2)c2c1C(=O)CSC(c1ccccc1Cl)N2 (stereo unspecified)	False
CO[C@H](C(=O)[C@@H](O)[C@@H](C)O)[C@@H]1Cc2cc3cc(O[C@H]4C[C@@H](O[C@H]5C[C@@H](O)[C@H](O)C(C)O5)[C@H](O)C(C)O4)c(C)c(O)c3c(O)c2C(=O)[C@H]1O[C@H]1C[C@@H](O[C@H]2C[C@@H](O[C@H]3C[C@](C)(O)C(=O)C(C)O3)[C@@H](O)C(C)O2)[C@H](O)C(C)O1 (stereo partly specified)	True
CCCCCCCCCCCCCC	False
Brc1ccsc1Br	False
CC(=O)Oc1ccccc1C(=O)Nc1ncc([N+](=O)[O-])s1	False
COc1ccc(Cl)cc1Nc1nc(C(F)(F)F)ccc1C(=O)NN	False
c1csc(-c2cnc3nonc3n2)c1	False
COc1ccc(C(=O)OC2C(OC3C(O)COC(O[C@H]4C[C@H]5[C@@H]6CC=C7C[C@@H](O)CC[C@]7(C)[C@H]6CC[C@]5(C)[C@H]4[C@H](C)C(=O)CCC(C)C)C3OC(N)=O)OCC(O)C2O)cc1 (stereo partly specified)	True
CCn1c(Cc2ccccc2Nc2c(Cl)cccc2Cl)nnc1SCC(=O)Nc1ccccc1C(F)(F)F	False
Cc1ccc(OC2=C(C#N)C(=N)N3C(=NN2)Sc2c(C)ccc(C)c23)cc1	False
Cc1c(C(=O)CCl)c(=O)n(-c2ccccc2)n1C	False
COc1ccc(/C(C)=N/NC(=O)CSc2nc3ccccc3c(=O)n2CCc2ccc(S(N)(=O)=O)cc2)cc1	False
CCC(=O)OCc1ccc(OC)cc1	False
O=C(Nc1cccc(N=Cc2c(O)ccc3ccccc23)c1)c1ccccc1	False
Cc1cccc(/C=N/n2c(-c3ccc(Cl)cc3)nc3c(Br)cc(Br)cc3c2=O)c1	False
CCCCCCCC/C=C\CCCCCCCC(=O)OCCCCCC	False
Clc1ccc(C2=NN[C@H](c3cn(-c4ccccc4)nc3-c3ccccc3)C2)cc1	False
NC(N)=N/N=C/c1ccc(Cl)cc1	False
CC(C)(CCc1ccccn1)C(=O)CCCc1ccccn1	False
CCCCCCCCN=C(NCCCCCCCC)SCc1cccc2ccccc12	True
O=C(CCl)Nc1cc(O)c2c(c1)C(=O)c1cccc(O)c1C2=O	True
N#Cc1ccc(-c2ccc(-c3cccs3)o2)cc1F	False
O=C1CCCN1C(O)CCN(Cc1ccccc1)Cc1ccc(Cl)cc1 (stereo unspecified)	False
CC(=O)Oc1c(Cl)c(Cl)c(Cl)c(Cl)c1Cl	False
CCn1c(Cc2ccccc2Nc2c(Cl)cccc2Cl)nnc1SCC(=O)Nc1cccc(OC)c1	False
